Assay: Antiproliferative activity against human MKN45 cells assessed as inhibition of cell growth after 72 hrs by MTT assay
Assay type: functional, cell-based
Details: MKN-45, 72 h
pIC50: −log10 of the molar value.
We use 6 as the dividing line for pIC50: on or above the line is Yes, below is No.

See these solved cases before continuing.
>>> cat("COc1cc2c(Oc3ccc(CC(=O)N/N=C(/C)c4ccccc4)cc3F)ccnc2cc1OCCCN1CCCCC1")
"No"
>>> cat("COc1cc2c(Oc3ccc(CC(=O)N/N=C/c4ccc(OC(F)(F)F)cc4)cc3F)ccnc2cc1OCCCN1CCCC1")
"Yes"
>>> cat("COc1cc2c(Oc3ccc(CC(=O)N/N=C/c4ccccc4)cc3F)ccnc2cc1OCCCN1CCCCC1")
"No"

Now, please, on to the next compound.
Prompt line: Please check the record `COc1cc2c(Oc3ccc(CC(=O)N/N=C(/C)c4ccc(C(F)(F)F)cc4)cc3F)ccnc2cc1OCCCN1CCOCC1` and state if its pIC50 is at or above 6.
Response line: Yes

====

Test: Antiproliferative activity against human MKN45 cells assessed as inhibition of cell growth after 72 hrs by MTT assay
Type: functional, cell-based
Conditions: MKN-45, 72 h
endpoint: IC50 (µM)
Numbers only, in µM.

>>> recorded_number("COc1cc2c(Oc3ccc(CC(=O)N/N=C/c4ccccc4F)cc3F)ccnc2cc1OCCCN1CCCC1")
0.98
>>> recorded_number("COc1cc2c(Oc3ccc(CC(=O)N/N=C(/C)c4ccc(O)cc4)cc3F)ccnc2cc1OCCCN1CCCC1")
1.68

For each of the items listed, what is its IC50?
1. COc1cc2c(Oc3ccc(CC(=O)N/N=C/c4ccc(F)cc4)cc3F)ccnc2cc1OCCCN1CCCC1
2. COc1cc2c(Oc3ccc(CC(=O)N/N=C/c4ccc(S(C)(=O)=O)cc4)cc3F)ccnc2cc1OCCCN1CCOCC1
3. COc1cc2c(Oc3ccc(CC(=O)N/N=C/c4ccc(C(F)(F)F)cc4)cc3F)ccnc2cc1OCCCN1CCOCC1
4. COc1cc2c(Oc3ccc(CC(=O)N/N=C/c4ccccc4)cc3F)ccnc2cc1OCCCN1CCC(C)CC1

Response line:
1: 0.56; 2: 1.14; 3: 0.49; 4: 2.12

For every item below, please supply its IC50.
1. COc1ccc(/C=N/NC(=O)Cc2ccc(Oc3ccnc4cc(OCCCN5CCOCC5)c(OC)cc34)c(F)c2)cc1
2. COc1cc2c(Oc3ccc(CC(=O)N/N=C/c4ccccc4)cc3F)ccnc2cc1OCCCN1CCCC1

Response line:
1. 3.91
2. 0.72

====

Target: Receptor-type tyrosine-protein kinase FLT3 (Homo sapiens)
Sequence (P36888 whole entry): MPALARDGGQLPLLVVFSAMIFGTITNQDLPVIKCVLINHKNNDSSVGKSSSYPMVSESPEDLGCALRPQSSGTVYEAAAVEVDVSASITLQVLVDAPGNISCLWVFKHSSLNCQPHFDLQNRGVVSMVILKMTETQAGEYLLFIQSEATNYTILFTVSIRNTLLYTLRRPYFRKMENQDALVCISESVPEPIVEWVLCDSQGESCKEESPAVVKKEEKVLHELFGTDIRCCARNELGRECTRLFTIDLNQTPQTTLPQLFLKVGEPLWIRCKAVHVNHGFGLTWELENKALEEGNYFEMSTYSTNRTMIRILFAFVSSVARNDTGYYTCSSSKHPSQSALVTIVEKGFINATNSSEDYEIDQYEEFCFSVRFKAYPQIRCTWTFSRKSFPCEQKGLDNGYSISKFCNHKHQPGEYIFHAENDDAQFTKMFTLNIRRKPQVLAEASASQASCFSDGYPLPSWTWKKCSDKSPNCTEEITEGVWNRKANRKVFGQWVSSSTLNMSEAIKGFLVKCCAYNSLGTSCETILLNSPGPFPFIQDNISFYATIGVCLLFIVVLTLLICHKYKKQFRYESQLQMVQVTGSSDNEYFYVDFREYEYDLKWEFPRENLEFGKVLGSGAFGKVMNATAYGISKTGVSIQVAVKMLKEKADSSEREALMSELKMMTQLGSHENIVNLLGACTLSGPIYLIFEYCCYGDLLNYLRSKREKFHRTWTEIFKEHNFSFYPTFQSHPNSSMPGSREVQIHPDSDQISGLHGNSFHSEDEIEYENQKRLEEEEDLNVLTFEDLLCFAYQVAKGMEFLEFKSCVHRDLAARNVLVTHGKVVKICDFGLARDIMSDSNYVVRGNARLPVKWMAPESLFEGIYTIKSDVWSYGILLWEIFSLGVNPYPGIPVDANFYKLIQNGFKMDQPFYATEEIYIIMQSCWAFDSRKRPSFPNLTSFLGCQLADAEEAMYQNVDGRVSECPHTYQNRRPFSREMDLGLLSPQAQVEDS
endpoint: pIC50
One number for each entry, as −log10 of the molar value.

Prompt line: In one line, give reported pIC50 of the entry `COc1cc2c(Oc3ccc(CC(=O)N/N=C/c4ccc(C(F)(F)F)cc4)cc3F)ccnc2cc1OCCCN1CCCC1` .
Response line: 6.41

====

Record form. Attribute: IC50. Fill in for each entry.
Assay: Antiproliferative activity against human MKN45 cells assessed as inhibition of cell growth after 72 hrs by MTT assay
Format: functional, cell-based
Settings: MKN-45, 72 h
Give bare numbers, in nM.

>>> recorded_number("COc1cc2c(Oc3ccc(CC(=O)N/N=C/c4ccncc4)cc3F)ccnc2cc1OCCCN1CCOCC1")
790
>>> recorded_number("COc1cc2c(Oc3ccc(CC(=O)N/N=C(/C)c4ccc(C(F)(F)F)cc4)cc3F)ccnc2cc1OCCCN1CCC(C)CC1")
840
>>> recorded_number("COc1cc2c(Oc3ccc(CC(=O)N/N=C(/C)c4ccccc4)cc3F)ccnc2cc1OCCCN1CCCC1")
760

Please examine the following record next.
Prompt line: Quote IC50 reported for `COc1cc2c(Oc3ccc(CC(=O)N/N=C(/C)c4ccccc4)cc3F)ccnc2cc1OCCCN1CCC(C)CC1` please.
Response line: 2690

====

Test: Antiproliferative activity against human MKN45 cells assessed as inhibition of cell growth after 72 hrs by MTT assay
Assay type: functional, cell-based
Details: MKN-45, 72 h
Assignment: determine reported pIC50 for the given molecules.
One number for each entry, as −log10 of the molar value.

Solved entries (count: 5):
>>> recorded_number("COc1cc2c(Oc3ccc(CC(=O)N/N=C/c4cccs4)cc3F)ccnc2cc1OCCCN1CCOCC1")
5.74
>>> recorded_number("COc1cc2c(Oc3ccc(CC(=O)N/N=C(/C)c4ccc(C(F)(F)F)cc4)cc3F)ccnc2cc1OCCCN1CCCC1")
6.38
>>> recorded_number("COc1cc2c(Oc3ccc(CC(=O)N/N=C(/C)c4ccc(C(F)(F)F)cc4)cc3F)ccnc2cc1OCCCN1CCCCC1")
6.03
>>> recorded_number("COc1cc(/C=N/NC(=O)Cc2ccc(Oc3ccnc4cc(OCCCN5CCOCC5)c(OC)cc34)c(F)c2)ccc1O")
4.95
>>> recorded_number("COc1cc2c(Oc3ccc(CC(=O)N/N=C/c4ccc(O)cc4)cc3F)ccnc2cc1OCCCN1CCOCC1")
5.49

List the reported pIC50 of each molecule below.
1. COc1cc2c(Oc3ccc(CC(=O)N/N=C/c4ccc(C(F)(F)F)cc4)cc3F)ccnc2cc1OCCCN1CCCC1
2. COc1cc2c(Oc3ccc(CC(=O)N/N=C/c4ccc(Cl)cc4)cc3F)ccnc2cc1OCCCN1CCCC1
3. COc1cc2c(Oc3ccc(CC(=O)N/N=C(/C)c4ccc(F)cc4)cc3F)ccnc2cc1OCCCN1CCCC1

Response line:
6.43
6.21
6.24

====

Molecular target: Hepatocyte growth factor receptor (Homo sapiens, UniProt P08581)
Sequence (P08581 whole entry): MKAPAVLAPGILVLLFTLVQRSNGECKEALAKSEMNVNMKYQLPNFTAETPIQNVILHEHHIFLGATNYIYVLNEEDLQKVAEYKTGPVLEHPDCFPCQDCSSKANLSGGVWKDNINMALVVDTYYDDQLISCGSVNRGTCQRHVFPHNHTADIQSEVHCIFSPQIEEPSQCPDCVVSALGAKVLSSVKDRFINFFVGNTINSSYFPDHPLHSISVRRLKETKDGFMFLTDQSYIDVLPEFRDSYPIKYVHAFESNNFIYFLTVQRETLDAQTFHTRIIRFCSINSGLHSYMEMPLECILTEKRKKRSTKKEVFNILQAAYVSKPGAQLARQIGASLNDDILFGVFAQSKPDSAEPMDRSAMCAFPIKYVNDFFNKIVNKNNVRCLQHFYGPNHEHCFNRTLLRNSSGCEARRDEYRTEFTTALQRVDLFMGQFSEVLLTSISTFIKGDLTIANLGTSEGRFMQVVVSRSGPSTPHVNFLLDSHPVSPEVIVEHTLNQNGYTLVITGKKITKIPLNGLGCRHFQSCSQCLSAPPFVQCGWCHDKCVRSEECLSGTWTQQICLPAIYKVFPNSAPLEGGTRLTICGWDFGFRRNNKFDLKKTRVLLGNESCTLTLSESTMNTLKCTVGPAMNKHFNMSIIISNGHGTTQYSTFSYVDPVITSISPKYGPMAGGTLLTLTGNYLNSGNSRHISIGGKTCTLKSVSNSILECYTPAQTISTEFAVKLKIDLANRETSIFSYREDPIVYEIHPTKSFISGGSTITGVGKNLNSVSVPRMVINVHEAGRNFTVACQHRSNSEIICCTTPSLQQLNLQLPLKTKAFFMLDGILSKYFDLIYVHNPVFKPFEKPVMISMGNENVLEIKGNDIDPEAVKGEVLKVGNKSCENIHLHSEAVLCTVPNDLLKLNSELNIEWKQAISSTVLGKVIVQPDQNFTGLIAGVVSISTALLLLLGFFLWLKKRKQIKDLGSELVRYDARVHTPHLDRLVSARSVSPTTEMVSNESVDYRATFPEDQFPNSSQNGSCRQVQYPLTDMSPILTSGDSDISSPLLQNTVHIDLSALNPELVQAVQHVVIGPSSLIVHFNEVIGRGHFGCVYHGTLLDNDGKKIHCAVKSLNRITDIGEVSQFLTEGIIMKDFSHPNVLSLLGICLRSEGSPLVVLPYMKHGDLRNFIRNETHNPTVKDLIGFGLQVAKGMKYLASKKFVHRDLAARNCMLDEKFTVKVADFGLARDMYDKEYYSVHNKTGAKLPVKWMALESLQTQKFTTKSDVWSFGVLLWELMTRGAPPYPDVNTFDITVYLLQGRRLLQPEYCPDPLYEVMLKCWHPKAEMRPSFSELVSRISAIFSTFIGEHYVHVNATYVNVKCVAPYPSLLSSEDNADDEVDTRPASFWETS
endpoint: pIC50
Numbers only, as −log10 of the molar value.

Prompt line: State the measured pIC50 (Hepatocyte growth factor receptor (Homo sapiens, UniProt P08581)) of `COc1cc2c(Oc3ccc(CC(=O)N/N=C/c4ccc(C(F)(F)F)cc4)cc3F)ccnc2cc1OCCCN1CCCC1`
Response line: 8.73

====

Test: Antiproliferative activity against human MKN45 cells assessed as inhibition of cell growth after 72 hrs by MTT assay
Assay type: functional, cell-based
Details: MKN-45, 72 h
Would you mind telling me the reported IC50 of each entry?
Numbers only, in nM.

>>> recorded_number("COc1cc2c(Oc3ccc(CC(=O)N/N=C/c4ccc(OC(F)(F)F)cc4)cc3F)ccnc2cc1OCCCN1CCOCC1")
690
>>> recorded_number("COc1cc2c(Oc3ccc(CC(=O)N/N=C/c4ccccc4)cc3F)ccnc2cc1OCCCN1CCOCC1")
820

// moving on: another record for IC50
Prompt line: For the compound `COc1cc2c(Oc3ccc(CC(=O)N/N=C(/C)c4ccccc4)cc3F)ccnc2cc1OCCCN1CCOCC1` , give its reported IC50.
Response line: 970

Source: ChEMBL document CHEMBL3352497
